Biological target: FAAH (Mus musculus, UniProt O08914)
Construct: Proteomes (mouse brain membrane fraction or cell lysates); from tissue; host or cells: mouse brain membrane fraction (or cell lysates, not specified)
Sequence (O08914 whole entry): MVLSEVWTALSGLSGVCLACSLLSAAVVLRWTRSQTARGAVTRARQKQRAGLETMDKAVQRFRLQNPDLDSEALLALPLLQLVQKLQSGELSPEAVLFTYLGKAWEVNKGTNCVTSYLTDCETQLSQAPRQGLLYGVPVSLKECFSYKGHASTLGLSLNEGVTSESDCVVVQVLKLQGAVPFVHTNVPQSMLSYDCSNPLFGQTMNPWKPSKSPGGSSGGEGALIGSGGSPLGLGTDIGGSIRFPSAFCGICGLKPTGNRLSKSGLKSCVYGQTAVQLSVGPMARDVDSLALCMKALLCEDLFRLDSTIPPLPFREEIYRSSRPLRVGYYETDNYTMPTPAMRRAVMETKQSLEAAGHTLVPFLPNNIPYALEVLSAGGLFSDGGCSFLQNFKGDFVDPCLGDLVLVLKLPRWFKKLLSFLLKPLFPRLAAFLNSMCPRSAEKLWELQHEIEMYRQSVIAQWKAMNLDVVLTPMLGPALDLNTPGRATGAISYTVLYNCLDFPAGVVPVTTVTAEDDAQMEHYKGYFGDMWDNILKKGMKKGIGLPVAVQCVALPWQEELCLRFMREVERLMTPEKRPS
Assay: In vitro competitive activity-based protein profiling (gel-based, FP-Rh or HT-01 probe)
Assay type: biochemical
Conditions: 1 μM inhibitor; read-out: % Inhibition at 1 μM, B = FAAH
property-label: inhibition at 1 µM

Past entries and their recorded results:
| smiles-representation | test-target | inhibition at 1 µM |
| --- | --- | --- |
| O=C(N1CCN(c2ccccc2Cl)CC1)n1cc(C(F)(F)F)cn1 | FAAH (Mus musculus, UniProt O08914) | > 75% |
| O=C(N1CCN(Cc2ccc(C(F)(F)F)cc2N2CCCC2)CC1)n1cc(-c2ccccc2C(F)(F)F)cn1 | FAAH (Mus musculus, UniProt O08914) | < 25% |
| Cc1cc(N2CCN(C(=O)n3cc(C(F)(F)F)cn3)CC2)c2ccccc2n1 | FAAH (Mus musculus, UniProt O08914) | > 75% |

Below are some molecules; for each one, tell me its inhibition at 1 µM.
1. CS(=O)(=O)N1CCCN(C(=O)n2cc(Cl)cn2)CC1
2. O=C(N1CCN(Cc2ccc(C(F)(F)F)cc2N2CCCC2)CC1)n1cc(-c2ccc(C(F)(F)F)cc2)cn1
3. O=C(c1cnn(C(=O)N2CCN(Cc3cccnc3)CC2)c1)N1CCCCC1
4. O=C(N1CCN(Cc2ccc(-c3ccccc3)cc2OCc2ccccc2)CC1)n1cc(C(F)(F)F)cn1
5. Cc1cnn(C(=O)N2CCN(Cc3ccc(OCc4ccccc4)cc3)CC2)c1

Result ::
> 75%
< 25%
< 25%
> 75%
< 25%

Below are some molecules; for each one, tell me its inhibition at 1 µM.
1. O=C(NCc1ccc2ccccc2c1)n1cccn1
2. N#Cc1cnn(C(=O)NCc2ccc3ccccc3c2)c1
3. O=C(N1CCN(c2ccc(N3CCOCC3)cc2)CC1)n1cc(C(F)(F)F)cn1
4. O=C(N1CCN(Cc2ccc(C(F)(F)F)cc2N2CCCC2)CC1)n1cc(F)cn1

Result ::
< 25%
< 25%
> 75%
> 75%

Below are some molecules; for each one, tell me its inhibition at 1 µM.
1. O=C(c1cnn(C(=O)N2CCN(Cc3cncnc3)CC2)c1)N1CCCCC1
2. Cc1cc(-c2ccccc2)ccc1CN1CCN(C(=O)n2cc(C(=O)N3CCCC3)cn2)CC1
3. N#Cc1cnn(C(=O)NCCCc2ccccc2)c1
4. CC(C)n1cc(CN2CCN(C(=O)n3cc(Cl)cn3)CC2)c(-c2ccccc2)n1

Result ::
1. < 25%
2. > 75%
3. < 25%
4. > 75%

* * *

For each entry below, report its inhibition at 10 µM value.
Target: MAGL (Mus musculus, UniProt O35678)
Construct: Proteomes (mouse brain membrane fraction or cell lysates); from tissue; host or cells: mouse brain membrane fraction (or cell lysates, not specified)
Sequence (O35678 whole entry): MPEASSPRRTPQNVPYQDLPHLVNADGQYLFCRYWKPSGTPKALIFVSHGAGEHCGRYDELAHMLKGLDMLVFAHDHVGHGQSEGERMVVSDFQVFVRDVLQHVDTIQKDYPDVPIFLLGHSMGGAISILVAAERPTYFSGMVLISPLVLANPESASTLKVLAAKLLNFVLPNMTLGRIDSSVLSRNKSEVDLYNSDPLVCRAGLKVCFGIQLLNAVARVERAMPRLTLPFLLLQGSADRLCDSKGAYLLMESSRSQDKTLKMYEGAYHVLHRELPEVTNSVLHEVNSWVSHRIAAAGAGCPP
Test: In vitro competitive activity-based protein profiling (gel-based, FP-Rh or HT-01 probe)
Format: biochemical
Details: 10 μM inhibitor

| smiles-representation | property-label | result |
| --- | --- | --- |
| O=C(N1CCCN(Cc2ccccc2)CC1)n1cc(Cl)cn1 | inhibition at 10 µM | > 75% |
| O=C(N1CCN(Cc2ccncc2)CC1)n1cc(-c2ccccc2)cn1 | inhibition at 10 µM | 25 to 75% |
| O=C(N1CCN(Cc2ccc(C(F)(F)F)cc2N2CCCC2)CC1)n1cc(-c2ccccc2C(F)(F)F)cn1 | inhibition at 10 µM | 25 to 75% |
| O=C(N1CCN(Cc2ccc(-c3ccccc3)cc2OCc2ccccc2)CC1)n1cc(Cl)cn1 | inhibition at 10 µM | > 75% |
| O=C(N1CCCCC1)n1cc(-c2ccccc2)cn1 | inhibition at 10 µM | < 25% |
| Cc1ccc(N2CCN(C(=O)n3cc(C(F)(F)F)cn3)CC2)cc1 | inhibition at 10 µM | > 75% |
| O=C(N1CCN(Cc2ccc(-c3ccccc3)cc2OCc2ccccc2)CC1)n1cc(C(F)(F)F)cn1 | inhibition at 10 µM | > 75% |
| CN(CCN(C)C(=O)n1cc(C#N)cn1)C(=O)c1ccccc1 | inhibition at 10 µM | > 75% |

Below are some compounds; for each one, tell me its inhibition at 10 µM.
1. O=C(N1CCN(Cc2ccc(Oc3ccccc3)cc2)CC1)n1cccn1
2. O=C(N1CCN(C(c2ccc(Cl)cc2)c2ccc(Cl)cc2)CC1)n1cc(-c2ccc(C(F)(F)F)cc2)cn1
3. CC(=O)N1CCN(C(=O)n2cc(C#N)cn2)CC1
4. O=C(N1CCN(Cc2ccc(OCc3ccccc3)cc2)CC1)n1cccn1
5. N#Cc1cnn(C(=O)N2CCOCC2)c1
6. Cc1cc(-c2ccccc2)ccc1CN1CCN(C(=O)n2cc(C(=O)N3CCC3)cn2)CC1
7. Cc1cnn(C(=O)N2CCN(C(=O)c3ccccc3)CC2)c1
8. O=C(N1CCN(Cc2ccc(-c3ccccc3)cc2Cl)CC1)n1cc(Cl)cn1

Result ::
> 75%
25 to 75%
25 to 75%
> 75%
25 to 75%
> 75%
25 to 75%
> 75%

Below are some compounds; for each one, tell me its inhibition at 10 µM.
1. CN(Cc1cccc(-c2ccncc2)c1)C(=O)n1cc(-c2ccccc2)cn1
2. N#Cc1cnn(C(=O)N2CCN(c3ccccc3)CC2)c1
3. O=C(c1cnn(C(=O)N2CCN(Cc3ccccn3)CC2)c1)N1CCCCC1
4. Cc1cc(N2CCN(C(=O)n3cc(-c4ccccc4)cn3)CC2)c2ccccc2n1
5. Cc1cnn(C(=O)N2CCN(C(=O)OC(C)(C)C)CC2)c1

Result ::
["> 75%", "> 75%", "< 25%", "> 75%", "25 to 75%"]

Below are some compounds; for each one, tell me its inhibition at 10 µM.
1. CC(C)c1cnn(C(=O)N2CCN(C(c3ccc(Cl)cc3)c3ccc(Cl)cc3)CC2)c1
2. O=C(c1cnn(C(=O)N2CCN(Cc3ccncc3)CC2)c1)N1CCOCC1
3. Cc1cnn(C(=O)N2CCCCC2)c1
4. CN(CCN(C)S(C)(=O)=O)C(=O)n1cc(Cl)cn1
5. O=C(N1CCN(Cc2ccc(C(F)(F)F)cc2)CC1)n1cc(Cl)cn1
6. N#Cc1cnn(C(=O)N2CCCN(C(=O)c3ccccc3)CC2)c1
7. O=C(c1cnn(C(=O)N2CCN(Cc3cccnc3)CC2)c1)N1CCC1
8. Cc1cc(N2CCN(C(=O)n3cc(Cl)cn3)CC2)c2ccccc2n1

Result ::
1. > 75%
2. < 25%
3. 25 to 75%
4. < 25%
5. > 75%
6. > 75%
7. < 25%
8. > 75%

Below are some compounds; for each one, tell me its inhibition at 10 µM.
1. Cc1cnn(C(=O)N2CCCN(S(C)(=O)=O)CC2)c1
2. O=C(N1CCN(c2cccc(Cl)c2)CC1)n1cc(C(F)(F)F)cn1
3. Cc1cnn(C(=O)N2CCN(Cc3ccc(OCc4ccccc4)cc3)CC2)c1

Result ::
< 25%
> 75%
> 75%

Source: patent US10093630B2
